- Test system: polyclonal antibody raised to Immunogen IV
- test: Competitive biochip immunoassay of pyrrolidinophenones and potential cross-reactants (Evidence Investigator)
- Format: binding, sheep
Structures can show the parent of a compound that is named as a salt.
Catalogue of % Cross-Reactivity readings, one per entry.

Reference set (3 entries):
molecule | observed.value
CN[C@@H](C)[C@@H](O)c1ccccc1.Cl [(+)-Pseudoephedrine HCl] | <1%
CCC(C(=O)c1ccc2c(c1)OCO2)N1CCCC1 (racemic) [HCl] | 192%
CN[C@@H](C)Cc1ccccc1 [Methamphetamine HCl] | <1%

What does the data say about its % Cross-Reactivity? Entry: CCCCCn1cc(C(=O)Cc2ccccc2OC)c2ccccc21
<1%

What does the data say about its % Cross-Reactivity? Entry: CC(N)Cc1ccc2c(c1)OCO2 (racemic)
<1%

What does the data say about its % Cross-Reactivity? Entry: CCC(C(=O)c1ccc(C)cc1)N1CCCC1.Cl (racemic)
34%

What does the data say about its % Cross-Reactivity? Entry: CCCCCn1cc(C(=O)c2cccc3ccccc23)c2ccccc21
<1%

What does the data say about its % Cross-Reactivity? Entry: COC(=O)[C@@H]1C[C@H](OC(C)=O)C(=O)[C@H]2[C@@]1(C)CC[C@H]1C(=O)O[C@H](c3ccoc3)C[C@]21C
<1%
